Source listed as patent US20170360875A1.

Measured OD405 FcγIIIa values are reported for all entries that follow.
System: FcγIIIa
Assay type: binding
Ends that are not written are not given here.

Example results:
Give FcγIIIa OD405 FcγIIIa for the following substance: APPCAFHLGELVWCT (cysteine pairing not given here) [SEQ ID NO:18]
0.880

Give FcγIIIa OD405 FcγIIIa for the following substance: APPCAWHLGELVWCT (cysteine pairing not given here) [SEQ ID NO:14]
0.530

Give FcγIIIa OD405 FcγIIIa for the following substance: Asp-Cys-Ala-Phe-His-Leu-Gly-Glu-Leu-Val-Trp-Cys-Thr [SEQ ID NO:3]
0.810

Give FcγIIIa OD405 FcγIIIa for the following substance: APPCARHLGELVWCT (cysteine pairing not given here) [SEQ ID NO:16]
0.709

More entries:
Give FcγIIIa OD405 FcγIIIa for the following substance: Asp-Cys-Ala-Trp-His-Leu-Gly-Glu-Leu-Val-Trp-Cys-Thr [SEQ ID NO:2]
0.741
